system: human MET; assay: MET biochemical kinase assay; set-up: concentration or dose not given beside the values
The entries below are paired with their reported Met Kinase % Inhibition.

COMPOUND	ASSAYED TARGET	Met Kinase % Inhibition
COc1c(C(C)(C)C)cc(C=C2C(=O)Nc3c(Br)cc(Br)cc32)cc1C(C)(C)C	human MET	24.0%
COc1ccc(C=C2C(=O)Nc3ccc(CCCl)cc32)cc1OC	human MET	5.0%
CNS(=O)(=O)c1ccc2c(c1)C(=Cc1ccc(O)c(C(C)(C)C)c1)C(=O)N2	human MET	−4.9%
CN(C)c1ccc(C=C2C(=O)Nc3ccc(I)cc32)c2ccccc12	human MET	48.8%
O=C1Nc2c(Br)cc(Br)cc2C1=Cc1ccc[nH]1	human MET	9.4%

Prompt: Data request, read-out Met Kinase % Inhibition, for `CCc1cc(CC)c(C=C2C(=O)Nc3ccc(S(=O)(=O)NC)cc32)[nH]1`
Response: 24.0%

Prompt: Record request: Met Kinase % Inhibition value, item C=C(C)C1CC=C(C=C2C(=O)Nc3ccc(I)cc32)CC1 (stereo not shown)
Response: 71.0%
